- SYSTEM_TESTED: human Nectin-4 (protein used in the SPR affinity measurements) (human) (UniProt Q96NY8)
- Sequence (Q96NY8 32-349 limits assumed): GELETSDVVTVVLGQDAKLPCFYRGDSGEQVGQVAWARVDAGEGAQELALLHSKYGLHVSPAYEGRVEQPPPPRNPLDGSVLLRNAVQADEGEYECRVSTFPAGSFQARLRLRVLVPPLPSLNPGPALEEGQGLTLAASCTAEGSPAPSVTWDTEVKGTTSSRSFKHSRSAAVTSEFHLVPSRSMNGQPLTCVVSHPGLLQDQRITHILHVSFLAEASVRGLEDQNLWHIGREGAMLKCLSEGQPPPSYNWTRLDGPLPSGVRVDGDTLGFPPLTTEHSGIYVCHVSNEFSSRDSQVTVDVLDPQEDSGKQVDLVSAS
- MEASUREMENT_DESCRIPTION: SPR, human IgG1
Parameter: kon. Scope: all listed entries.
READOUT_KIND: kon (M⁻¹ s⁻¹)

BINDER	EXPERIMENTAL_RESULT
H4L3 (antibody, human IgG1, V domains shown, human IgG1 isotype) VH: QVQLVQSGAEVKKPGASVKVSCKASGYIFTSYWMHWVKQAPGQGLEWMGEIDPSDSYTNYNQKFKGRVTMTLDKSTSTTYMELSSLRSEDTAVYYCARGYGNYGDYWGQGTLVTVSS VL: DVVMTQSALSNPVTPGEPASISCRSSKSLLHSNGITYLYWYLQKPGQSPQLLIYQMSNLASGVPDRFSSSGSGTDFTLKISRVEAEDVGVYYCAQNLELPWTFGGGTKVEIK	250000
H6L2 (antibody, human IgG1, V domains shown, human IgG1 isotype) VH: QVQLVQSGAEVKKPGASVKVSCKASGYIFTSYWMHWVKQRPGQGLEWIGEIDPSDSYTNYNQKFKGRVTMTLDKSTSTTYMELSSLRSEDTAVYYCARGYGNYGDYWGQGTLVTVSS VL: DVVMTQSPLSNPVTPGEPASISCRSSKSLLHSNGITYLYWYLQKPGQSPQLLIYQMSNLASGVPDRFSSSGSGTDFTLKISRVEAEDVGVYYCAQNLELPWTFGGGTKVEIK	140000
H3L2 (antibody, human IgG1, V domains shown, human IgG1 isotype) VH: QVQLVQSGAEVKKPGASVKVSCKASGYIFTSYWMHWVRQAPGQGLEWMGEIDPSDSYTNYNQKFKGRVTMTLDKSTSTTYMELSSLRSEDTAVYYCARGYGNYGDYWGQGTLVTVSS VL: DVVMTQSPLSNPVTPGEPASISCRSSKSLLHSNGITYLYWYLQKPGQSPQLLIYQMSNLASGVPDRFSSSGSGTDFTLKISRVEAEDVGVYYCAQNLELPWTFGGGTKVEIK	310000

Measured values drawn from patent US20250297004A1 for this set.
